- Test system: SNB-75 CNS
- Test description: NCI tumour cell line growth inhibition, 48 h
# key: entry, value: TGI

- Molecule: "FC(F)(F)c1nc2c(ccc3[nH]c4c(-c5ccccc5)nccc4c32)[nH]1"
  TGI: "> 100 µM"
- Molecule: "COC(=O)CCC(=O)Nc1cc(C)ccc1C"
  TGI: "> 100 µM"
- Molecule: "O=C(c1nc2ccc(Cl)cc2[nH]c1=O)C(O)c1ccco1 (stereo not drawn)"
  TGI: "> 100 µM"

---

- Test system: HOP-62 NSCLC
- Test description: NCI tumour cell line growth inhibition, 48 h; in the data active means GI50 below about 0.43 µM; inactive means the rest
Classes used: t = active, f = inactive

- Smiles text: "COc1ccc(-n2nc(C(=O)NCC(=O)Nc3nc4cc(OC)ccc4s3)c3ccccc3c2=O)cc1"
  Discrete label: "f"
- Smiles text: "COc1ccc2c(ccc3oc([N+](=O)[O-])cc32)c1"
  Discrete label: "t"
- Smiles text: "NC1=CC(=O)C(=O)c2ccccc21"
  Discrete label: "f"
- Smiles text: "COc1ccc(/C=C\\c2cc(OC)c(OC)c(OC)c2)cc1N/C=C\\C(=O)c1c[nH]c2ccccc12"
  Discrete label: "t"
- Smiles text: "NCCNc1nc2ccc(F)cc2c2c(=O)c3cc(F)ccc3sc12"
  Discrete label: "f"
- Smiles text: "COC(=O)[C@]12CC[C@@H](C)[C@H](C)[C@@H]1C1=CC[C@@H]3[C@@]4(C)C(C=O)=C[C@@](C)(COC(=O)c5ccco5)C4=CC[C@@]3(C)[C@]1(C)CC2"
  Discrete label: "f"
- Smiles text: "COc1cc(-c2cn(-c3ccc(F)cc3)c(=O)[nH]2)cc(OC)c1OC"
  Discrete label: "f"

---

- Test system: SNB-19 CNS
- Test description: NCI tumour cell line growth inhibition, 48 h
Measured endpoint: TGI

- Smiles text: "C=CC(=O)N1CCC(CNc2ncnc(N)c2-c2ccc(Oc3ccccc3)cc2)CC1"
  Target or system: "SNB-19 CNS"
  Value observed: "> 100 µM"
- Smiles text: "COc1ccccc1CNC(=O)/C=C/c1ccc(O)c(O)c1"
  Target or system: "SNB-19 CNS"
  Value observed: "> 100 µM"
- Smiles text: "Cc1ccc(S(=O)(=O)Nc2cc(=O)[nH]c3c2CCC3)cc1"
  Target or system: "SNB-19 CNS"
  Value observed: "> 100 µM"

---

- System: NCI-H226 lung
- Test description: NCI tumour cell line growth inhibition, 48 h

- Molecule: "COc1ccc(/C=C2/C(=O)N(/C=C3\\C(=O)Oc4ccccc4C3=O)C(=NC(C)=O)N2C)cc1OC"
  Qualifier: ">"
  TGI / µM: 100
- Molecule: "Cc1cc(=O)[nH]c(Sc2ccc([N+](=O)[O-])cc2[N+](=O)[O-])n1"
  Qualifier: "="
  TGI / µM: 40.9
- Molecule: "COc1cc(/C=C/C(=O)N[C@@H]2C(=O)N3[C@@H]2SC(C)(C)[C@@H]3C(=O)O)ccc1O"
  Qualifier: ">"
  TGI / µM: 100
- Molecule: "O=C(O)c1ccc(C2=Nc3cccc4cccc(c34)N2)cc1"
  Qualifier: ">"
  TGI / µM: 100
- Molecule: "O=C1/C(=C\\c2cccc(Oc3ccccc3)c2)SC(c2ccccc2)N1Cc1ccccc1 (stereo not given)"
  Qualifier: "="
  TGI / µM: 90.9

---

- Tested on: NCI-H226 lung
- Test description: NCI tumour cell line growth inhibition, 48 h
# key: entry, value: TGI
Measured endpoint: TGI

- Molecule: "O=C1NC(=O)C23C(=O)NC(=O)C12C1C=CC3CC1 (stereo not given)"
  Value observed: "> 10 µM"
- Molecule: "COc1ccc(/C=C\\c2cc(OC)c(OC)c(OC)c2)cc1N/C=C\\C(=O)c1c[nH]c2ccccc12"
  Value observed: "> 100 µM"
- Molecule: "O=C1c2ccccc2-c2c1c1ccc([N+](=O)[O-])cc1c(=O)n2CCN1CCOCC1"
  Value observed: "> 100 µM"
- Molecule: "Oc1cc(F)cc2cccnc12"
  Value observed: "> 100 µM"
- Molecule: "O=C(O)C(C(F)(F)F)C(F)(F)F (tested in a mixture with another compound)"
  Value observed: "> 100 µM"

---

- Test system: UACC-62 melanoma
- Test description: NCI tumour cell line growth inhibition, 48 h
# key: entry, value: TGI

- Compound: "Nc1ccccc1-n1c2c(c3ccccc3c1=O)C(=O)c1ccccc1-2"
  TGI: "> 100 µM"
- Compound: "O=C(/C=C/c1ccco1)N1CCN(Cc2ccccc2)CC1"
  TGI: "> 100 µM"
- Compound: "Oc1c(O)c(Cc2ccccc2)c(Cc2ccccc2)c(Cc2ccccc2)c1Cc1ccccc1"
  TGI: "> 10 µM"
- Compound: "O=C(Cc1ccc(-c2ccc(OCCN3CCOCC3)cc2)cn1)NCc1ccccc1"
  TGI: "> 100 µM"
- Compound: "CCCC(=O)Nc1cc(/C=C/C(=O)N2CC(CCl)c3c2cc(OC(C)=O)c2[nH]cc(C)c32)n(C)c1 (configuration not stated)"
  TGI: "4.23e-05 µM"
- Compound: "Nc1n[nH]c2cc(F)c([C@@H]3Nc4c(F)cc5[nH]ncc5c4[C@H]4C5CCC(C5)[C@@H]34)cc12 (some centres not stated)"
  TGI: "6.77 µM"
- Compound: "CC1(C)OC2C(O1)[C@H]1OC(C(Cl)(Cl)Cl)=N[C@H]1C(I)[C@H]2N1C(=O)c2ccccc2C1=O (some centres not stated)"
  TGI: "> 100 µM"

---

- Test system: IGROV1 ovarian
- Test description: NCI tumour cell line growth inhibition, 48 h; in the data active means GI50 below about 0.43 µM; inactive means the rest
Classes used: True for active, False for inactive

- Compound: "COc1ccc(/C=N/C2=NNC(C)(c3ccccc3O)N2C(Cc2c[nH]c3ccccc23)C(=O)O)cc1 (centres undefined)"
  Target or system: "IGROV1 ovarian"
  Discrete label: "False"
- Compound: "COc1ccc(-n2nc(C(=O)NCC(=O)Nc3nc4cc(OC)ccc4s3)c3ccccc3c2=O)cc1"
  Target or system: "IGROV1 ovarian"
  Discrete label: "False"
- Compound: "COc1ccccc1N1CCN(CC(O)Cn2c(=O)c3c(OC)nc(C)cc3c(=O)n2-c2ccccc2)CC1 (centres undefined)"
  Target or system: "IGROV1 ovarian"
  Discrete label: "False"
- Compound: "COC(=O)C[C@@H]1CC=CC(=O)/C1=C(O)/C=C/c1ccccc1"
  Target or system: "IGROV1 ovarian"
  Discrete label: "True"

---

- Tested on: HOP-62 NSCLC
- Test description: NCI tumour cell line growth inhibition, 48 h

- Compound: "CCC1=NC(N/N=C/c2ccco2)=N/C1=C\\c1ccco1"
  TGI: "> 100 µM"
- Compound: "O=C(O)c1ccc2[nH]c(=O)oc2c1"
  TGI: "> 100 µM"
- Compound: "NC(=O)/C=C/c1c[nH]c2nccnc12"
  TGI: "19.3 µM"
- Compound: "COc1ccc(C2S/C(=C\\c3ccc([N+](=O)[O-])cc3)C(=O)N2NC(=O)Cc2ccccc2)cc1 (stereo unspecified)"
  TGI: "> 100 µM"
- Compound: "CCCCCC/C=C\\CCCCCCCCCc1cccc(OC)c1O"
  TGI: "> 100 µM"
- Compound: "NC(=S)N/N=C(/CCN1CCCC1)CC(C1=C(O)C2=CCCCC2OC1=O)c1ccccc1 (stereo unspecified)"
  TGI: "> 100 µM"

---

- Test system: NCI/ADR-RES ovarian
- Test description: NCI tumour cell line growth inhibition, 48 h
Peptide text beside a SMILES is read from it. * marks the point of attachment. Cbz = O=C(OCc1ccccc1)*

- Molecule: "CC(=S)NC=C(C(N)=O)C(N)=O"
  TGI: "> 100 µM"
- Molecule: "C/C(=N\\NC(N)=S)C(CN1CCCCC1)C(C1=C(O)c2ccccc2OC1)c1ccccc1 (stereo unspecified)"
  TGI: "> 100 µM"
- Molecule: "Oc1c(O)c(Cc2ccccc2)c(Cc2ccccc2)c(Cc2ccccc2)c1Cc1ccccc1"
  TGI: "> 10 µM"
- Molecule: "CCCCCCCCCCCCCC/C(C(=O)O)=C(\\C)C(=O)O"
  TGI: "> 100 µM"
- Molecule: "CNc1cc(Cl)ccc1C(=O)N1CCC[C@H]1CO"
  TGI: "> 100 µM"
- Molecule: "Cc1ccc(S(=O)(=O)Nc2cc(=O)[nH]c3c2CCC3)cc1"
  TGI: "> 100 µM"
- Molecule: "Nc1ncc(-c2ccc3ncnc(N4CCc5cc(F)c(Cl)cc54)c3c2)cc1C(F)(F)F"
  TGI: "> 100 µM"
- Molecule: "CCOC(=O)CCC(NC(=O)CNC(=O)CNC(=O)C(CCC(=O)OCC)NC(=O)C(CCC(=O)OCC)NC(=O)C(CCC(=O)OCC)NC(=O)OCc1ccccc1)C(=O)NC(CCC(=O)OCC)C(=O)NC(CCC(=O)OCC)C(=O)OCC (stereo unspecified) (Cbz-E(OEt)E(OEt)E(OEt)GGE(OEt)E(OEt)E(OEt)-OEt; configuration not given here)"
  TGI: "> 75 µM"
- Molecule: "N#CCc1nc(-c2cc3ccc(O)cc3oc2=O)cs1"
  TGI: "> 100 µM"
- Molecule: "CC(C)(C)COS(=O)OCC(C)(C)C"
  TGI: "> 100 µM"
- Molecule: "O=C(O)c1ccccc1C(=O)Nc1cc2c(cc1Br)-c1ccccc1C2=O"
  TGI: "> 100 µM"

The measurements presented in this section are drawn from PubChem BioAssay (NCI).
